Exercise: state measured IC50 for each of the compounds provided.
experimentalSystem: Receptor-type tyrosine-protein kinase FLT3 (Homo sapiens, UniProt P36888)
Sequence (P36888 whole entry): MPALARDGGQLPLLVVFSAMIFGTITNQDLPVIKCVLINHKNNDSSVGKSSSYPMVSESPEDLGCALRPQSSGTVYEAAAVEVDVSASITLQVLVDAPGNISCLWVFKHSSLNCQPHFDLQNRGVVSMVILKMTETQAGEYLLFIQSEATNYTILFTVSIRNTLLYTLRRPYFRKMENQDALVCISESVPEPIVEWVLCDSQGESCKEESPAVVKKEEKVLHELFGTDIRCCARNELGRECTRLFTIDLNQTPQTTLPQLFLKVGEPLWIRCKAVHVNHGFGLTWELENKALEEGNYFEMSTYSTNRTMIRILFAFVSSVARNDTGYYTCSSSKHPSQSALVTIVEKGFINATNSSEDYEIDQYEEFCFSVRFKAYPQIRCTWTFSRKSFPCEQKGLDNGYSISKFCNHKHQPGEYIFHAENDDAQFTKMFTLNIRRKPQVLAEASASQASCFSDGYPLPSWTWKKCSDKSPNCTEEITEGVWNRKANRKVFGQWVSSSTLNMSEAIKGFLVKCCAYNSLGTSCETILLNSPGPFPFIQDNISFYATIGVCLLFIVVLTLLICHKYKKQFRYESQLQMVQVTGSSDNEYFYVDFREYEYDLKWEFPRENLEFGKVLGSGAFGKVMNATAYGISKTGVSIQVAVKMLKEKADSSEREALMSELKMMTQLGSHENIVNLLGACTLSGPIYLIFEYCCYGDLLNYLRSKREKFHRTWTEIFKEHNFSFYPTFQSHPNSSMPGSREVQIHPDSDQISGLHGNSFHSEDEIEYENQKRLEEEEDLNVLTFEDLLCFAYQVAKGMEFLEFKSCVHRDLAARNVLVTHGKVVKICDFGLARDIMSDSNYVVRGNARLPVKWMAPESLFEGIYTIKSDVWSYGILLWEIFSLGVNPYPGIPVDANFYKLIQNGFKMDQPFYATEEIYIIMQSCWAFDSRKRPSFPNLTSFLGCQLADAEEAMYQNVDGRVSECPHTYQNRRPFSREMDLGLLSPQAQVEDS
protocolNotes: Inhibition of recombinant FLT3
assayConditions: read-out: IC50 (converted)
Dear colleague, please return just the value in µM, with no unit written.

Ask | Entry `COc1cc(O)c2c(=O)oc3cc(O)cc(C)c3c2c1` needs its IC50 filled in; supply it.
Reply | 3.67

Ask | Entry `COc1cc(O)c(C(=O)O)c(-c2cc(O)c(O)cc2C)c1` needs its IC50 filled in; supply it.
Reply | 5.51

Ask | Entry `COc1cc(O)c(C(=O)O)c(C2=C(C)C[C@@H](O)C2=O)c1` needs its IC50 filled in; supply it.
Reply | 23.7

Ask | Entry `Cc1cc(O)c(O)cc1-c1cc(O)cc(O)c1C(=O)O` needs its IC50 filled in; supply it.
Reply | 6.52

----------
experimentalSystem: Serine/threonine-protein kinase PLK1 (Homo sapiens, UniProt P53350)
Sequence (P53350 whole entry): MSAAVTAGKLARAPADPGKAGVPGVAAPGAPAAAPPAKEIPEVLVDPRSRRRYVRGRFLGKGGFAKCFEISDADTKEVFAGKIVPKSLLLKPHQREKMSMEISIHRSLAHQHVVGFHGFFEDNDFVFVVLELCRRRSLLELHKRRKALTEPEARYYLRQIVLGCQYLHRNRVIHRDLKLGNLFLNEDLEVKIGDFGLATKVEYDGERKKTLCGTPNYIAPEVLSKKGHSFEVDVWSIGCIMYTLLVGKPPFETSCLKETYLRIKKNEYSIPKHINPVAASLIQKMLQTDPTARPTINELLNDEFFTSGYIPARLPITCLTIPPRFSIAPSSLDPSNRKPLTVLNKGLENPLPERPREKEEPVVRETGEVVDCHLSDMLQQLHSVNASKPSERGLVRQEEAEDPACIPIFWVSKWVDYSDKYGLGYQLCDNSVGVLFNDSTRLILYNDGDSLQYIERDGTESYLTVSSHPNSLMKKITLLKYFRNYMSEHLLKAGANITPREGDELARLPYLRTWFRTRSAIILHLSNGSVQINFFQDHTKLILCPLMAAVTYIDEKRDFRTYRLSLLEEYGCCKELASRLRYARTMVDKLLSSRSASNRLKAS
protocolNotes: Inhibition of recombinant PLK1
assayConditions: read-out: IC50 (converted)
reportedProperty: IC50 (µM)
Dear colleague, please return just the value in µM, with no unit written.

Ask | Give reported IC50 for `Cc1cc(O)cc2oc(=O)c3c(O)cc(OS(=O)(=O)O)cc3c12` (Serine/threonine-protein kinase PLK1 (Homo sapiens, UniProt P53350))
Reply | 13

Ask | Give reported IC50 for `Cc1cc(O)cc2oc(=O)c3c(O)cc(O)cc3c12` (Serine/threonine-protein kinase PLK1 (Homo sapiens, UniProt P53350))
Reply | 26.7

Ask | Give reported IC50 for `COc1cc(O)c(C(=O)O)c(-c2cc(O)c(O)cc2C)c1` (Serine/threonine-protein kinase PLK1 (Homo sapiens, UniProt P53350))
Reply | 24.5

Ask | Give reported IC50 for `COc1cc(O)c2c(=O)oc3cc(O)cc(C)c3c2c1` (Serine/threonine-protein kinase PLK1 (Homo sapiens, UniProt P53350))
Reply | 30.1

Ask | Give reported IC50 for `COc1cc(O)c2c(=O)oc3c(O)c(O)cc(C)c3c2c1` (Serine/threonine-protein kinase PLK1 (Homo sapiens, UniProt P53350))
Reply | 19.8

----------
experimentalSystem: Serine/threonine-protein kinase B-raf (Homo sapiens, UniProt P15056, V600E)
Sequence (P15056 2-766 V600E limits assumed): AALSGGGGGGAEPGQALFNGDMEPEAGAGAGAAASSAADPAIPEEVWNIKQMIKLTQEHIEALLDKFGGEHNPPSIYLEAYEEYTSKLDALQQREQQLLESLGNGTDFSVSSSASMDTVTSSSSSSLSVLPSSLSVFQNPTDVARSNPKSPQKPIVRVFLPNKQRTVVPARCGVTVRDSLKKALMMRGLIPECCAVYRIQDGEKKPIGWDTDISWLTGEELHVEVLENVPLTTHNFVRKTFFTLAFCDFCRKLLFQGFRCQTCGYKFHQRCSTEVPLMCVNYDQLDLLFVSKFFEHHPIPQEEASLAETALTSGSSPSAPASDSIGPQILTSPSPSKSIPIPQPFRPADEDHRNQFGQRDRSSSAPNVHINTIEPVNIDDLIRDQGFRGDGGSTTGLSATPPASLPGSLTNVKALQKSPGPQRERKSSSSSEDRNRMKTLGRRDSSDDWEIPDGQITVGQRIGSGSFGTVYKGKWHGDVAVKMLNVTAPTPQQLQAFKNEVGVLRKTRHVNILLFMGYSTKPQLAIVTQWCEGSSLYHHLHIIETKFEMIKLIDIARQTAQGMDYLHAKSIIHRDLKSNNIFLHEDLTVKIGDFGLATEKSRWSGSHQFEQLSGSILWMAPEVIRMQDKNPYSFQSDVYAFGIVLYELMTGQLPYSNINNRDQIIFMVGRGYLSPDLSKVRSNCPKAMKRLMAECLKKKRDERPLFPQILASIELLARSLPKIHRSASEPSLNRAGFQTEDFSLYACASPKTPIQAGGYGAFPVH
protocolNotes: Inhibition of recombinant B-RAF-V600E mutant
assayConditions: read-out: IC50 (converted)
reportedProperty: IC50 (µM)
Dear colleague, please return just the value in µM, with no unit written.

Ask | Entry `O=C1C[C@H](O)[C@@H]2c3c(ccc(O)c31)-c1ccc(O)c3c1[C@@]2(O)CCC3=O` needs its IC50 filled in; supply it.
Reply | 19

Ask | Entry `COc1cc(O)c(C(=O)O)c(-c2cc(O)c(O)cc2C)c1` needs its IC50 filled in; supply it.
Reply | 11.4

Ask | Entry `COc1cc(O)c2c(=O)oc3cc(O)cc(C)c3c2c1` needs its IC50 filled in; supply it.
Reply | 17.6

Ask | Entry `Cc1cc(O)cc2oc(=O)c3c(O)cc(O)cc3c12` needs its IC50 filled in; supply it.
Reply | 6.2

Ask | Entry `COc1cc(O)c2c(=O)oc3c(O)c(O)cc(C)c3c2c1` needs its IC50 filled in; supply it.
Reply | 5.2

Ask | Entry `COc1cc(O)c(C(=O)O)c(C2=C(C)C[C@@H](O)C2=O)c1` needs its IC50 filled in; supply it.
Reply | 32.3

Ask | Entry `Cc1cc(O)c(O)cc1-c1cc(O)cc(O)c1C(=O)O` needs its IC50 filled in; supply it.
Reply | 26.8
